Values compiled from patent US20240116985A1.

biological target: full-length beta-Catenin (Uniprot ID P35222) (Homo sapiens (Human)) (UniProt P35222); test: fluorescence polarization competition vs 5FAM-TCF4(10-53) on full-length beta-catenin
Sequence (P35222 2-781 limits assumed): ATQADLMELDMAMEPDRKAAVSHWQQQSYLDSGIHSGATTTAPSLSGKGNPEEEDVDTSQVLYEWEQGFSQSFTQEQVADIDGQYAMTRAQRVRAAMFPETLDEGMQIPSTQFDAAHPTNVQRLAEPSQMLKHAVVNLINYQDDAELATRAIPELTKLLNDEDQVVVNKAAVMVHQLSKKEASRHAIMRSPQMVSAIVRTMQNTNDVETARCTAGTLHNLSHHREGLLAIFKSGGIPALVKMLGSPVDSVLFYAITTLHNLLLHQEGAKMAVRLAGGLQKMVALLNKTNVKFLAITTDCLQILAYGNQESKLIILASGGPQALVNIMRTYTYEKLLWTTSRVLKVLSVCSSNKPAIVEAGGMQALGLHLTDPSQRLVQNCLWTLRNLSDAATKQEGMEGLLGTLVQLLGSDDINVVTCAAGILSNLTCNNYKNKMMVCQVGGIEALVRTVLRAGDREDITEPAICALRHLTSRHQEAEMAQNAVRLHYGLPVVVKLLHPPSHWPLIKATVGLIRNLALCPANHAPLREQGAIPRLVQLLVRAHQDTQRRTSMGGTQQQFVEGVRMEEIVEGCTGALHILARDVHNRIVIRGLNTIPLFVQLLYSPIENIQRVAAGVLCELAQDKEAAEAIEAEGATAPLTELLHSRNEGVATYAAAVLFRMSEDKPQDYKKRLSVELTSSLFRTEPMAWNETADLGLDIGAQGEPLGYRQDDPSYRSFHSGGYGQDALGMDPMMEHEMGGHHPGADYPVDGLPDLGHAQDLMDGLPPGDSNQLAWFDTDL
pIC50: −log10 of the molar value. Starred links: 1 amine or outer side, 2 acyl side, 3 side chain; linkers in the order of their positions; H or OH if unused. Positions of bridges follow the written chain, without caps; N, C: chain ends. Non-standard residues stand in square brackets, D forms with d. Primed or numbered codes have the meaning given here. PyrS2″ = (S)-3-amino-1-((pent-4-en-1-yloxy)carbonyl)pyrrolidine-3-carboxylic acid (stapling residue), C=CCCCOC(=O)N1CC[C@@](N[*:1])(C(=O)[*:2])C1; B5(4) = 2,2-bis(4-pentenyl)glycine = 2-amino-2-(pent-4-en-1-yl)hept-6-enoic acid (stitching residue), C=CCCCC(CCCC=C)(N[*:1])C(=O)[*:2]; Phe(2-Cl) = N[C@@H](Cc1ccccc1Cl)C(=O)O; Bta = N[C@@H](Cc1csc2ccccc12)C(=O)O; αAllylPro = C=CC[C@@]1(C(=O)O)CCCN1; Cha = N[C@@H](CC1CCCCC1)C(=O)O; hSer = N[C@@H](CCO)C(=O)O
measurementType: pIC50

binder: Ac-[αAllylPro]D[Cha][B5(4)]DDLLFS[PyrS2″][Phe(2-Cl)][Bta]Q-NH2 (staple 1-4, 4-11) [I-1149]
measurementType: pIC50
measuredNumber: 7.15

P. Ac-[αAllylPro]D[Cha][B5(4)]DDAAFL[PyrS2″][Phe(2-Cl)][Bta]T-NH2 (staple 1-4, 4-11) [I-1139]
Q. Ac-[αAllylPro]D[Cha][B5(4)]DDAAFS[PyrS2″][Phe(2-Cl)][Bta][hSer]-NH2 (staple 1-4, 4-11) [I-1137]
Quick check, higher pIC50 between P and Q ? Write down the label attached to your selection.
Q
(Q: 8.10, P: 7.66)
